experiment: Oral Bioavailability (PO) and Pharmacokinetics Assay; format: in vivo, Sprague-Dawley rats; settings: male, Sprague-Dawley, rat, plasma, po, 5 mg/kg, PO 5 mg/kg, read-out: T½ (converted)
value_kind: half-life (h)

// below: answered molecules
given_smiles	half-life / h
Cc1ccccc1C(=O)Nc1nc(NC(=O)c2ccccc2)n(-c2ccccc2)n1	1.7
Cc1ccccc1C(=O)Nc1nc(NC(=O)c2ccccc2)nn1-c1ccccc1	2.1

[A] O=C(/C=C/c1ccccc1)Nc1nc(NC(=O)c2ccccc2)nn1-c1ccccc1
[B] O=C(Nc1nc(NC(=O)c2ccccc2)n(-c2ccccc2)n1)c1ccccc1
Between the entries labeled A and B , whose measured half-life is lower? Select an item and report its label. B

* * *

assay: Oral Bioavailability (PO) and Pharmacokinetics Assay; type: in vivo, Sprague-Dawley rats; details: male, Sprague-Dawley, plasma; rat, IV bolus 1 mg/kg; read-out: F (%)
value_kind: bioavailability (%)
Respond numerically; units are % and should not be typed.

# bioavailability lookup, item O=C(Nc1nc(NC(=O)c2ccccc2)n(-c2ccccc2)n1)c1ccccc1 [Compound A] 100

* * *

assay: Microsomal Stability Assay, rat liver microsomes; assay type: in vitro ADME; conditions: rat, liver microsomes, pH 7.4; 1 μM compound, 1.0 mg/mL microsome, NADPH; read-out: RLM t1/2
value_kind: half-life at 1 μM (min)

# annotated cases, reported half-life at 1 μM shown
molecule	value_kind	assay_result
c1ccc(-n2nc(-c3ccccn3)nc2Nc2ncnc3ccccc23)cc1 [Compound U2]	half-life at 1 μM	126
Cc1ccccc1C(=O)Nc1nc(-c2ccccn2)nn1-c1ccc(OC(F)(F)F)cc1 [Compound H3]	half-life at 1 μM	16

[1] O=C(Nc1nc(NC(=O)c2ccccc2)n(-c2ccccc2)n1)c1ccccc1 [Compound A]
[2] O=C(Nc1nc(NC(=O)c2ccc3ccccc3n2)n(-c2ccccc2)n1)c1ccccc1 [Compound B2]
Which has the smaller recorded half-life at 1 μM, 1 or 2 ? // output: label of the selected item 2

* * *

assay: Oral Bioavailability (PO) and Pharmacokinetics Assay; format: in vivo, Sprague-Dawley rats; conditions: rat, IV bolus 1 mg/kg; 1 mg/kg
value_kind: Vss (L/kg)

See these solved cases before continuing.
given_smiles	unit_abbrev	Vss
Cc1ccccc1C(=O)Nc1nc(NC(=O)c2ccccc2)n(-c2ccccc2)n1	L/kg	0.401
O=C(/C=C/c1ccccc1)Nc1nc(NC(=O)c2ccccc2)nn1-c1ccccc1	L/kg	0.416

[A] Cc1ccccc1C(=O)Nc1nc(NC(=O)c2ccccc2)nn1-c1ccccc1
[B] O=C(Nc1nc(NC(=O)c2ccccc2)n(-c2ccccc2)n1)c1ccccc1
Please indicate which item has the smaller measured Vss: A versus B I would appreciate it if you answered with the label of your choice. B
(B: 0.381 L/kg, A: 0.707 L/kg)

* * *

target: UniProtKB O60260; experiment: Activity-Based Probe Assay using an Ubiquitin vinyl sulfone probe (TR-FRET); assay type: biochemical; details: Parkin activation, HA-Ub-VS probe, heat activated Parkin; read-out: Probe Assay EC50 (μM) [Example 2]
Sequence (O60260 whole entry): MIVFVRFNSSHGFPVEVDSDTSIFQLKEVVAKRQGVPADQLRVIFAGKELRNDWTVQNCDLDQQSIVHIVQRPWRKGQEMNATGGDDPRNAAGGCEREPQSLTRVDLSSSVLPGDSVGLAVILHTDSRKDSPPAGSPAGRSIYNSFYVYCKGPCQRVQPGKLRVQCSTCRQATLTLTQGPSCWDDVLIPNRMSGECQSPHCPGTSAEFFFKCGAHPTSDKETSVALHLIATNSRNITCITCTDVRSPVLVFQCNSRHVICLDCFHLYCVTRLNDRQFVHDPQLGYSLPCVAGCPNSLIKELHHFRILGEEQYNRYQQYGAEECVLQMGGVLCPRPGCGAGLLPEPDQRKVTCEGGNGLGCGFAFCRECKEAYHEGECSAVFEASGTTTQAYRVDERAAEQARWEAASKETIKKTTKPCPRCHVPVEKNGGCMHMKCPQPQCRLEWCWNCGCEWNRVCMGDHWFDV
value_kind: EC50 (µM)

The following molecules have reported results that may help.
molecule	unit_abbrev	EC50
Cc1ccccc1C(=O)Nc1nc(NC(=O)c2ccccc2C)n(-c2ccc(Cl)cc2)n1 [Compound Q3]	µM	4
O=C(Nc1nc(-c2ccccn2)nn1-c1ccccc1)c1ccccc1 [Compound Y1]	µM	2

[A] Cc1ccccc1C(=O)Nc1nc(Nc2ncnc3ccccc23)n(-c2ccccc2)n1 [Compound R2]
[B] O=C(Nc1nc(NC(=O)c2ccccc2)n(-c2ccc3ncccc3c2)n1)c1ccccc1 [Compound J2]
Just curious, which one has the larger EC50 reading, A or B ? Returns: label corresponding to the selected item. B
(B: 6 µM, A: 4 µM)
